# Assay system: F508delCFTR (Homo sapiens, UniProt P13569, DEL508-508)
# Construct: expressed in transfected cells; host or cells: CFBE41o- human lung-derived epithelial cells (CFBE41o-F508delCFTR-HRP), doxycycline-inducible
# Sequence (P13569 with tags, fused parts or gaps DEL508-508): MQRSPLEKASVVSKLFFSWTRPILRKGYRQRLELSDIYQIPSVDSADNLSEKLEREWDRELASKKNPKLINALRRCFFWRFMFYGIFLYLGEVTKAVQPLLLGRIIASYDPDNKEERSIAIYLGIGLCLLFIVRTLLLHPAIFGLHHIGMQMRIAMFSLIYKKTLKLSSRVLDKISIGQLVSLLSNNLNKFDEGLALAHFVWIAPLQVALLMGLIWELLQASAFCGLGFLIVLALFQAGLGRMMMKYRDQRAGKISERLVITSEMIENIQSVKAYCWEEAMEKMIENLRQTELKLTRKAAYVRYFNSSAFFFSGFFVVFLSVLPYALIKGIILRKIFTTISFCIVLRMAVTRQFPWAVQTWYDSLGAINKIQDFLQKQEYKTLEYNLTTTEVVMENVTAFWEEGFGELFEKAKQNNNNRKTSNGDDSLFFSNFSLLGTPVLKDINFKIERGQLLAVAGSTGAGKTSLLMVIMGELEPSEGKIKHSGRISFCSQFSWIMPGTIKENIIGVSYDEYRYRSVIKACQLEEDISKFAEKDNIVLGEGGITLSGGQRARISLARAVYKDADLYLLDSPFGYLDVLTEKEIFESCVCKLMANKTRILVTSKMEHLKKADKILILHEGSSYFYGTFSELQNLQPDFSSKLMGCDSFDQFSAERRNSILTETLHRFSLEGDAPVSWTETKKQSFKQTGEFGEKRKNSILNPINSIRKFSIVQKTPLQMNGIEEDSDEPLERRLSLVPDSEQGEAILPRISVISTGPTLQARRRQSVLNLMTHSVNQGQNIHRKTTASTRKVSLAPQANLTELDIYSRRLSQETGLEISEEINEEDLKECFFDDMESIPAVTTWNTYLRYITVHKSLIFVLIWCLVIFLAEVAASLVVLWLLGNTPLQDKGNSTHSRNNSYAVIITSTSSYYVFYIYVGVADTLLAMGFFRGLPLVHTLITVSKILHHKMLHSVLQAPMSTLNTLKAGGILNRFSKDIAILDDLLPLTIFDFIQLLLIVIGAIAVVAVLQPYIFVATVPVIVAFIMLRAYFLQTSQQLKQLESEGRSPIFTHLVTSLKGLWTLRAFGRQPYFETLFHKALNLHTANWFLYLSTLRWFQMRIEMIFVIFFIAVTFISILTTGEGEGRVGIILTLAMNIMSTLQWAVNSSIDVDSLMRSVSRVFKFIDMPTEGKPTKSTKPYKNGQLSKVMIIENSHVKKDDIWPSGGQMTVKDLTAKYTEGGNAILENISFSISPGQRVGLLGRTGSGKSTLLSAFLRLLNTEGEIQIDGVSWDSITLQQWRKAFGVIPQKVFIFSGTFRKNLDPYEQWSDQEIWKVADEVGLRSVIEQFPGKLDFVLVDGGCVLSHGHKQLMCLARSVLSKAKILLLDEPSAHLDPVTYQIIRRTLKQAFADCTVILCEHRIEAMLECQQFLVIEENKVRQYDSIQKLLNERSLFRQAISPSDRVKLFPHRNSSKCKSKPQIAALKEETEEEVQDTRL
# Protocol summary: Cell Surface Expression-Horse Radish Peroxidase (CSE-HRP) assay, test compound with co-corrector
# Type: cell-based
# Particulars: with 2 μM co-corrector
# Procedure: Cell Surface Expression-Horse Radish Peroxidase (CSE-HRP) Assay […] The % activity measured at each of the 8 test concentrations of the test compound added either without or with a co-corrector (2 μM of 3-[(2R,4R)-4-({[1-(2,2-difluoro-1,3-benzodioxol-5-yl)cyclopropyl]carbonyl}amino)-7-methoxy-3,4-dihydro-2H-chromen-2-yl]benzoic acid) was normalized to the on-plate positive control using the following formulae: […]
pEC50: −log10 of the molar value.
Property name: pEC50

These solved cases illustrate the format of a correct answer.
In [3]: df
Out[3]:
                                   compound  property_name  value_reported
0  COc1ccc(C#N)c2c1C(C(=O)NS(=O)(=O)c1cccc3ccccc13)CCC2 (centres unmarked)          pEC50          > 5.52
1  O=C(NS(=O)(=O)c1cccc2ccccc12)C1(CN2CCCC2)CCc2c(Cl)cccc21 (centres unmarked)          pEC50    5.00 to 5.52
2  O=C(NS(=O)(=O)c1cccc2ccccc12)C1(Cc2cccc(C(F)(F)F)n2)CCc2c(Cl)cccc21 (centres unmarked)          pEC50          > 5.52
3  CCC1(C(=O)NS(=O)(=O)c2cc(C)ccc2C(C)C)CCc2c(Cl)cccc21 (centres unmarked)          pEC50          > 5.52
4  CCC1(C(=O)NS(=O)(=O)c2cccc(N3CCC(F)(F)C3)c2C)CCc2c(Cl)cccc21 (centres unmarked)          pEC50          > 5.52
5  COc1cccc2c1CC(C(=O)NS(=O)(=O)c1ccccc1C)CC2 (centres unmarked)          pEC50    5.00 to 5.52

What value of pEC50 has been recorded for this entry: COc1ccc(C2CCC2)c2c1CCCC2C(=O)NS(=O)(=O)c1cccc2ccccc12 (centres unmarked)
> 5.52

What measured pEC50 goes with CCOc1ccc(Br)c2c1CCCC2C(=O)NS(=O)(=O)c1cccc2ccccc12 (centres unmarked) ?
> 5.52

Dear colleague, I am looking for the recorded pEC50 of the following compound: `COc1ccc(C2CCC2)c2c1[C@H](C(=O)NS(=O)(=O)c1cccc3nc(C)ccc13)CC2`
> 5.52

Any idea what pEC50 was measured for O=C(NS(=O)(=O)c1cccc2ccccc12)C1CCCc2c(Cl)ccc(OCCN3CCOCC3)c21 (centres unmarked) ?
5.00 to 5.52

Give its pEC50 value. Item: CCC1(C(=O)NS(=O)(=O)c2ccc(Br)c3ccccc23)CCc2c(Cl)cccc21 (centres unmarked)
> 5.52

Quick check: pEC50 of COc1cccc2c1CCC2C(=O)NS(=O)(=O)c1ncccc1C(=O)N(C)C (centres unmarked) ?
≤ 5.00

What measured pEC50 goes with `COc1ccc(Cl)c2c1[C@@H](C(=O)NS(=O)(=O)c1cccc3ccccc13)CC2` ?
5.00 to 5.52

Data request, read-out pEC50, for CCC1(C(=O)NS(=O)(=O)c2cccc(Br)c2C)CCc2c(Cl)cccc21 (centres unmarked)
5.00 to 5.52

I would be grateful if you could share the reported pEC50 for Cc1ccccc1S(=O)(=O)NC(=O)C1(C)CCc2ccccc21 (centres unmarked) .
5.00 to 5.52

// lookup pEC50 for COc1cccc2c1CCC2C(=O)NS(=O)(=O)c1c(C)nn(C)c1Cl (centres unmarked)
≤ 5.00

Please report the recorded pEC50 for CCC1(C(=O)NS(=O)(=O)c2cccc(Cl)c2Cl)CCc2c(Cl)cccc21 (centres unmarked) .
> 5.52
